Can you tell me % inhibition Apol 90' 5 for the items I'm about to list?
TARGET_OR_TEST_SYSTEM: UniProtKB Q8ILY1
Sequence (Q8ILY1 entry or part of it): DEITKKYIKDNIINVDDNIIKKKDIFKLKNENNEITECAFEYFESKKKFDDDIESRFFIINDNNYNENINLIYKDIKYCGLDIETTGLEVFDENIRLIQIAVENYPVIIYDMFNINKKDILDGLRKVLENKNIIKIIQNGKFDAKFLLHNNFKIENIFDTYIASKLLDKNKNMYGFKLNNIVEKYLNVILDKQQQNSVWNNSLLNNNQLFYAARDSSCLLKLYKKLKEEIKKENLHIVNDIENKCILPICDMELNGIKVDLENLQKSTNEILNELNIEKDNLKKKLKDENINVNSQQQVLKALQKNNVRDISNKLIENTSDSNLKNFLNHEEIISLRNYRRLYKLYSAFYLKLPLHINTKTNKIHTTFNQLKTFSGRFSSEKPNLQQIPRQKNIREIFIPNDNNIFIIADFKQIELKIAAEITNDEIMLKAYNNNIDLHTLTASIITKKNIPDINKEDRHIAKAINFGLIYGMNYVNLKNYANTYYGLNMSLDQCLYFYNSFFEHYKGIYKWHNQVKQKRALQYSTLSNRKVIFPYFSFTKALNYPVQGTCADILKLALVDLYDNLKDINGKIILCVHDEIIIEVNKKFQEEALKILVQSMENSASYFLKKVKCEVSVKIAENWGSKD
ASSAY: Fluorescence-based high-throughput DNA polymerase assay (molecular beacon), primary screen and dose-response
Assay type: biochemical
STATED_CONDITIONS: DRC-1; read at 90'; concentration 5
One number for each entry, in %.

Reference set (3 entries):
COMPOUND: COc1ccc(C2CC(c3ccc(Cl)cc3Cl)Nc3nc(N)nn32)cc1OC (centres unmarked)
% inhibition Apol 90' 5 (%): 32
--
COMPOUND: O=C1CSC2=NC3=C(CCc4ccccc43)C(c3cccs3)N12 (centres unmarked)
% inhibition Apol 90' 5 (%): 10.7696
--
COMPOUND: CC(=O)Nc1cc(C(=O)c2cccs2)nn(-c2ccc(Cl)cc2)c1=O
% inhibition Apol 90' 5 (%): -2.969

Each compound below has a recorded value; state its % inhibition Apol 90' 5.
1. Cc1nc(C)c2c(n1)N(CC1CCCCC1)C(=O)CC2
2. COc1ccc(/C=C/c2cc(C(=O)O)c3ccccc3n2)cc1
3. CC(C)CC(C(=O)O)N1C(=O)C2C3C=CC(C2C1=O)C1C(=O)N(C(CC(C)C)C(=O)O)C(=O)C31 (centres unmarked)
4. O=C(CCc1csc(NC(=O)Nc2ccccc2)n1)Nc1nc2ccccc2s1

Result:
1: 31.9392; 2: 44.8099; 3: 4.361; 4: -0.284

Query: Quick one: % inhibition Apol 90' 5 of "Cc1cc2[nH]c(C(=O)Nc3ccc(F)cc3)c(CN3CCOCC3)c2s1" ?
Result: 0.952
